# SUBJECT_OF_TEST: T1, EsCas13d, nuclease-dead (Eubacterium siraeum, UniProt B0MS50, R295A;H300A;R849A;H854A)
# T1 sequence: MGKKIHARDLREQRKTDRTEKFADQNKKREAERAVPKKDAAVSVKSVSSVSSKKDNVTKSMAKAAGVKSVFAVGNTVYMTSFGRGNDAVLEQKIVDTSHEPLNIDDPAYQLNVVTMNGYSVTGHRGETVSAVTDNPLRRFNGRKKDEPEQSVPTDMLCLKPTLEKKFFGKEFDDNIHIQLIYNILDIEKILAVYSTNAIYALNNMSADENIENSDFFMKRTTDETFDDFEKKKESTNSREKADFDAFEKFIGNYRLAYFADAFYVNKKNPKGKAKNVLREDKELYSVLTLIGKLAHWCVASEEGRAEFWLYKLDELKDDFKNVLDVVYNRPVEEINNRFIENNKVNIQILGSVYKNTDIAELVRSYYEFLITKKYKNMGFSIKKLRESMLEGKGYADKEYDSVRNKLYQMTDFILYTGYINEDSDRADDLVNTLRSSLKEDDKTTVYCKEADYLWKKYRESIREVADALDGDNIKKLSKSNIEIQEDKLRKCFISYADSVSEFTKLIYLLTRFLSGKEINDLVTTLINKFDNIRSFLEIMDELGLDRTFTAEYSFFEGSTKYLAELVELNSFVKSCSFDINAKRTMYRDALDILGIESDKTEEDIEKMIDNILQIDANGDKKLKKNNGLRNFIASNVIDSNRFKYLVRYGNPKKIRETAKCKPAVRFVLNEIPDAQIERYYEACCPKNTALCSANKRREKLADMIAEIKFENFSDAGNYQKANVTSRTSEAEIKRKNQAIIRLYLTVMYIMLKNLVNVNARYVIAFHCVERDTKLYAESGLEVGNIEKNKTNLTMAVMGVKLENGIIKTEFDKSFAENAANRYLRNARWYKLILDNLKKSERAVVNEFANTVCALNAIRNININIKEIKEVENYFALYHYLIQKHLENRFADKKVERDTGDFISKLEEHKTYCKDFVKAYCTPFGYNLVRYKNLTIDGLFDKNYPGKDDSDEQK
# ASSAY_OVERVIEW: crRNA (strand 1, pre-loaded); Mg2+; 40 mM Tris-HCl pH 7.5, 150 mM NaCl, 6 mM MgCl2, 1 mM DTT, 0.1% Tween-20, 0.2 mg/ml BSA; 25 C; 10 min per concentration, then washed
# CONDITION_CONTEXT: tags: His6-TwinStrep-SUMO cleaved; N-terminal SNAP kept (SNAP-Surface 488); label: 3' end held by stalled T7 RNA polymerase
PARAMETER_MEASURED: pKd
Scale for pKd: -log10 of concentration given in mol/L; no unit attached.

target 1 insG 3' of 14,insG 3' of 2 (mixed) RNA 1: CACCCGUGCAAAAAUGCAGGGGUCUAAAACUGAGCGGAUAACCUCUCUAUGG RNA 2: GGGAAUGGAUCCACAUCUACGAAUUCGUACCAUAGAGAGGGUUAUCCGCUCGACCGAGAUCGGAAGAGCACACGU: 7.93

Query :: Answer with the recorded pKd of target 1 G5U,A14C (mixed) RNA 1: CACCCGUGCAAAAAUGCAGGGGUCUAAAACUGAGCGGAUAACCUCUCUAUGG RNA 2: GGGAAUGGAUCCACAUCUACGAAUUCGUACCAUAGAGCGGUUAUCCUCUCACCGAGAUCGGAAGAGCACACGU only.
Result :: 7.68

Query :: Answer with the recorded pKd of target 1 C2G (mixed) RNA 1: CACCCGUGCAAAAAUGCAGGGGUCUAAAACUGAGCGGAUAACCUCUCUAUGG RNA 2: GGGAAUGGAUCCACAUCUACGAAUUCGUACCAUAGAGAGGUUAUCCGCUGACCGAGAUCGGAAGAGCACACGU only.
Result :: 8.08

Query :: Answer with the recorded pKd of target 1 MT 5'PFS GGG 3'PFS GCU (mixed) RNA 1: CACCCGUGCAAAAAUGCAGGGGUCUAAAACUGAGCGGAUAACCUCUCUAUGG RNA 2: GGGAAUGGAUCCACAUCUACGAAUUCGGGCCAUAGAGAGGUUAUCCGCUCAGCUAGAUCGGAAGAGCACACGU only.
Result :: 8.13
